Target: IgG receptor FcRn large subunit p51 (Homo sapiens)
Sequence (P55899 whole entry): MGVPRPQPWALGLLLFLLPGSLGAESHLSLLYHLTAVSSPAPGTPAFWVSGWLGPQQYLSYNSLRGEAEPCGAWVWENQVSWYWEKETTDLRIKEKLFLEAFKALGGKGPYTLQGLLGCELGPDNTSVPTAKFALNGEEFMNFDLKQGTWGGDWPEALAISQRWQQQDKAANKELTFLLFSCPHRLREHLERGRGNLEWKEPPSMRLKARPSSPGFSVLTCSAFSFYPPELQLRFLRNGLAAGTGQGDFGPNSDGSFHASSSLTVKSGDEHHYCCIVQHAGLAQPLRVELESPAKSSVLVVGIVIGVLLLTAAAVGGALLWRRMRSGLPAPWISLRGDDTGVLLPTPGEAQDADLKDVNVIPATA
Assay: Binding affinity to human FcRn at pH 6 by surface plasmon resonance assay
Value Type: pKd
Please keep in mind that pKd is minus log10 of the molar concentration; only the number is needed.

QUERY: I have this molecule here, "CC(C)C[C@@H](C(=O)N[C@@H](Cc1ccc(O)cc1)C(=O)N1CCC[C@H]1C(=O)N[C@@H](CS)C(=O)O)N(C)C(=O)CN(C)C(=O)CNC(=O)[C@H](Cc1ccccc1)NC(=O)[C@H](CCCN)NC(=O)CNC(=O)[C@@H](NC(=O)[C@@H](NC(=O)[C@H](Cc1ccccc1)NC(=O)[C@@H](N)CCCNC(=N)N)C(C)(C)S)[C@@H](C)O" , and I need its recorded pKd.
RESULT: 5.89

----------
Biological target: IgG receptor FcRn large subunit p51 (Homo sapiens)
Assay: Binding affinity to human FcRn at pH 6 by surface plasmon resonance assay
pKd: −log10 of the molar value.
Given measured pKd, output MET if it is greater than or equal to 6 and NOT MET if not.

Consider the worked cases shown below.
[[record]]
structure_notation = "CC(C)C[C@@H](C(=O)N[C@@H](Cc1ccc(O)cc1)C(=O)N1CCC[C@H]1C(=O)N[C@@H](CS)C(=O)O)N(C)C(=O)CN(C)C(=O)CNC(=O)[C@H](Cc1ccccc1)NC(=O)[C@H](Cc1cccnc1)NC(=O)CNC(=O)[C@@H](NC(=O)[C@@H](NC(=O)[C@H](Cc1ccccc1)NC(=O)[C@@H](N)CCCNC(=N)N)C(C)(C)S)[C@@H](C)O"
target_system = "IgG receptor FcRn large subunit p51 (Homo sapiens)"
label = "MET"

[[record]]
structure_notation = "CC(C)C[C@@H](C(=O)N[C@@H](Cc1ccc(O)cc1)C(=O)N1CCC[C@H]1C(=O)N[C@@H](CS)C(=O)N[C@@H](CC(N)=O)C(=O)NCC(=O)N1CCC[C@H]1C(=O)O)N(C)C(=O)CNC(=O)CNC(=O)[C@H](Cc1ccccc1)NC(=O)[C@H](Cc1cnc[nH]1)NC(=O)CNC(=O)[C@@H](NC(=O)[C@@H](NC(=O)[C@H](Cc1ccccc1)NC(=O)[C@H](CCCN=C(N)N)NC(=O)[C@@H](N)CCC(N)=O)C(C)(C)S)[C@@H](C)O"
target_system = "IgG receptor FcRn large subunit p51 (Homo sapiens)"
label = "MET"

[[record]]
structure_notation = "CC(=O)Nc1ccc(C[C@H](NC(=O)[C@H](Cc2cnc[nH]2)NC(=O)CNC(=O)[C@@H](NC(=O)[C@@H](NC(=O)[C@H](Cc2ccccc2)NC(=O)[C@H](CCCN=C(N)N)NC(=O)[C@@H](N)CCC(N)=O)C(C)(C)S)[C@@H](C)O)C(=O)NCC(=O)NCC(=O)N[C@@H](CC(C)C)C(=O)N[C@@H](Cc2ccc(O)cc2)C(=O)N2CCC[C@H]2C(=O)N[C@@H](CS)C(=O)N[C@@H](CC(N)=O)C(=O)NCC(=O)N2CCC[C@H]2C(=O)O)cc1"
target_system = "IgG receptor FcRn large subunit p51 (Homo sapiens)"
label = "NOT MET"


QUERY: Hello, I need to know if "CC(C)C[C@H](NC(=O)CN(C)C(=O)CNC(=O)[C@H](Cc1ccccc1)NC(=O)[C@H](Cc1cnc[nH]1)NC(=O)CNC(=O)[C@@H](NC(=O)[C@@H](NC(=O)[C@H](Cc1ccccc1)NC(=O)[C@@H](N)CCCNC(=N)N)C(C)(C)S)[C@@H](C)O)C(=O)N[C@@H](Cc1ccc(O)cc1)C(=O)N1CCC[C@H]1C(=O)N[C@@H](CS)C(=O)O" has measured pKd not below 6. Thanks!
RESULT: MET

QUERY: Hello, I need to know if "CC(C)C[C@H](NC(=O)CNC(=O)CNC(=O)[C@@H](NC(=O)[C@H](Cc1cnc[nH]1)NC(=O)CNC(=O)[C@@H](NC(=O)[C@@H](NC(=O)[C@H](Cc1ccccc1)NC(=O)[C@H](CCCN=C(N)N)NC(=O)[C@@H](N)CCC(N)=O)C(C)(C)S)[C@@H](C)O)C(c1ccccc1)c1ccccc1)C(=O)N[C@@H](Cc1ccc(O)cc1)C(=O)N1CCC[C@H]1C(=O)N[C@@H](CS)C(=O)O" has measured pKd not below 6. Thanks!
RESULT: NOT MET

QUERY: Hello, I need to know if "CC(C)C[C@H](NC(=O)CNC(=O)CNC(=O)[C@H](Cc1ccccc1)NC(=O)[C@H](Cc1cnc[nH]1)NC(=O)CNC(=O)[C@@H](NC(=O)[C@H](CCN)NC(=O)[C@H](Cc1ccccc1)NC(=O)[C@H](CCCN=C(N)N)NC(=O)[C@@H](N)CCC(N)=O)[C@@H](C)O)C(=O)N[C@@H](Cc1ccc(O)cc1)C(=O)N1CCC[C@H]1C(=O)N[C@@H](CC(=O)O)C(=O)N[C@@H](CC(N)=O)C(=O)NCC(=O)N1CCC[C@H]1C(=O)O" has measured pKd not below 6. Thanks!
RESULT: NOT MET

QUERY: Hello, I need to know if "CC(C)C[C@H](NC(=O)CNC(=O)CNC(=O)[C@H](Cc1ccccc1)NC(=O)[C@H](Cc1cnc[nH]1)NC(=O)CNC(=O)[C@@H](NC(=O)[C@H](CS)NC(=O)[C@H](Cc1ccccc1)NC(=O)[C@H](C)NC(=O)[C@@H](N)CCC(N)=O)[C@@H](C)O)C(=O)N[C@@H](Cc1ccc(O)cc1)C(=O)N1CCC[C@H]1C(=O)N[C@@H](CS)C(=O)N[C@@H](CC(N)=O)C(=O)NCC(=O)N1CCC[C@H]1C(=O)O" has measured pKd not below 6. Thanks!
RESULT: NOT MET

QUERY: Hello, I need to know if "CC(C)C[C@H](NC(=O)C(C)(C)NC(=O)CNC(=O)[C@H](Cc1ccccc1)NC(=O)[C@H](Cc1cnc[nH]1)NC(=O)CNC(=O)[C@@H](NC(=O)[C@@H](NC(=O)[C@H](Cc1ccccc1)NC(=O)[C@H](CCCNC(=N)N)NC(=O)[C@@H](N)CCC(N)=O)C(C)(C)S)[C@@H](C)O)C(=O)N[C@@H](Cc1ccc(O)cc1)C(=O)N1CCC[C@H]1C(=O)N[C@@H](CS)C(=O)N[C@@H](CC(N)=O)C(=O)NCC(=O)N1CCC[C@H]1C(=O)O" has measured pKd not below 6. Thanks!
RESULT: MET

QUERY: Hello, I need to know if "CC(C)C[C@H](NC(=O)CNC(=O)CNC(=O)[C@H](Cc1ccccc1)NC(=O)[C@H](Cc1cnc[nH]1)NC(=O)CNC(=O)[C@@H](NC(=O)[C@@H](NC(=O)[C@H](Cc1ccccc1)NC(=O)[C@H](CCCNC(=N)N)NC(=O)[C@@H](N)CCC(N)=O)C(C)(C)S)[C@@H](C)O)C(=O)N(C)[C@@H](Cc1ccc(O)cc1)C(=O)N1CCC[C@H]1C(=O)N[C@@H](CS)C(=O)N[C@@H](CC(N)=O)C(=O)NCC(=O)N1CCC[C@H]1C(=O)O" has measured pKd not below 6. Thanks!
RESULT: NOT MET
